- protocolText: Equilibrium solubility
- Format: physicochemical
- conditionLabel: citrate buffer, aqueous buffer, thermodynamic from solid; pH 4.2, 0.15 M Citrat-buffer, 21° C.
readout: solubility at 24 h (µg/mL)

* Cc1ncccc1-c1cc(N2CCN(C)CC2)ncc1N(C)C(=O)C(C)(C)c1cc(C(F)(F)F)cc(C(F)(F)F)c1 | 7500
* Cc1ncccc1-c1cc(N2CCN(C)CC2)ncc1C(=O)N(C)Cc1cc(C(F)(F)F)cc(C(F)(F)F)c1 | 13700
* Cc1ccccc1-c1cc(N2CCN(C)CC2)ncc1C(=O)N(C)Cc1cc(C(F)(F)F)cc(C(F)(F)F)c1 [EP 1 035 115A1example 12, reference compound] | 495
* Cc1ccccc1-c1cc(N2CCN(C)CC2)ncc1N(C)C(=O)C(C)(C)c1cc(C(F)(F)F)cc(C(F)(F)F)c1 [EP 1 035 115A1example 14, reference compound] | 26

Data origin: patent US7176205B2
